Measured log2 fold change of degron read counts values are reported for all entries that follow.
Molecular target: T1, CRBN, Q96SW2;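 note: pooled lentiviral library of zinc finger degron-EGFP fusions in mCherry-positive Jurkat cells, FACS-sorted after compound exposure, with degron abundance counted by next-generation sequencing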
T1 chain: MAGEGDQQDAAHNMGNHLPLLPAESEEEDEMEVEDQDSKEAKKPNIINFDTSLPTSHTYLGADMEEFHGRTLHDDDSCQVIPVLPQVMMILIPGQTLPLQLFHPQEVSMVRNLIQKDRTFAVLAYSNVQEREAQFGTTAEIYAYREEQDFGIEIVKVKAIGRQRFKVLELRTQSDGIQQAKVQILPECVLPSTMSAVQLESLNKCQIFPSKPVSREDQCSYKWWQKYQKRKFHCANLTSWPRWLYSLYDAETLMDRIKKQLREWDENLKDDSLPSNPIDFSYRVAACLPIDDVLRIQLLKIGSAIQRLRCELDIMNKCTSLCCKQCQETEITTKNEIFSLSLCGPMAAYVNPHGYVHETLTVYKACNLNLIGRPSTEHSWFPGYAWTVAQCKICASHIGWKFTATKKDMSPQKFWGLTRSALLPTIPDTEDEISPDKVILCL
Test: log2 fold change of degron read counts, EGFP-low vs EGFP+ sorted cells (limma voom), compound-induced degradation; higher = more compound-induced degradation of the degron-EGFP fusion; degrons are variants of IKZF1/3 zinc finger 2; compound dose not given here
Settings: Jurkat; 18 h; compound: compound 33 (diphenyl IMiD analogue)
Whole data set: some 8,300 sequences, median “log2 fold change of degron read counts, EGFP-low vs EGFP+ sorted cells (limma voom), compound-induced degradation” near -1.1, cut for the highest 2% near 3.2. What follows is part of a selection rich in the highest values, with near analogues and random picks from the rest.
Enter the number alone.

Record sequence	Value reported
FTCDVCGAMFTQKGNLLRHIKL [46F_47T_49D_50V_52G_53A_54M_55F_67L_, Q9UKT9]	-0.371

Query: Param item = FQCDVCGAFFTQKGNLLRHIKL [46F_47Q_49D_50V_52G_53A_54F_55F_67L_, Q9UKT9] ; retrieve measured log2 fold change of degron read counts.
Reply: -0.307

Query: Param item = LTCNQCGFQCTQKGNLLRHIKL [46L_47T_49N_50Q_52G_53F_54Q_55C_67L_, Q9UKT9] ; retrieve measured log2 fold change of degron read counts.
Reply: -1.48

From: the supplement of paper PMC12645437
